Source: PubChem BioAssay

# assayNotes: small-molecule binders of probe aNOTCH2, primary screen, biochemical, small-molecule microarray, 635/667 nm fluorescence (AID 1121);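 further: score merges feature fluorescence read at 667 nm with its signal to noise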
# runParameters: higher = more signal
Label no if composite z-score falls below 0.2; label yes in every other case.

compound	labelValue
COc1cccc(-c2cccc(=O)o2)c1	yes
COCCOC(=O)N1C(=O)[C@@]2(c3cc(C#CCC(C(=O)OC)C(=O)OC)ccc31)[C@H](c1ccccc1OCCO)N1[C@H](c3ccccc3)[C@H](c3ccccc3)OC(=O)[C@H]1[C@@H]2C(=O)NC[C@H](O)c1ccccc1	no
C=CC[C@@]12N=C(c3ccc(OCCCO)cc3)O[C@@H]1c1ccccc1N(C)C2=O	no
CC1(C)C2C=C(C(O)C3C=CC4C(=O)NC(=O)C4N3Nc3ccc(Cl)cc3Cl)C[C@@H]1C2 (stereo not given in full)	no
CC(=O)NCCCC[C@@H]1NC(=O)[C@H]2C[C@@H](C(=O)NCCCCCCNC(=O)CS)[C@@H](c3ccc(O)cc3)N2C1=O	no
